Each recorded value in this set is attributed to the supplement of paper PMC9170038.

System: K4 kissing-loop RNA reporter;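 further: bound reporter read as fluorescence of individual clusters on recovered sequencing chips by microscopy, with normalized cluster intensities fitted with a binding model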
Experiment: apparent KD of K4 kissing-loop reporter; higher = weaker reporter binding
Conditions: Eterna round: R107; input ligand: arginine 13.2 mM
Give apparent KD of K4 kissing-loop reporter for every item shown.
Reply with just the number (in nM).

Lab note: measured apparent KD of K4 kissing-loop reporter of UGUAUGUGAUUUGAUACCAGACCAGCUGGUGUUAGAUGAGUGAUGUUGAUCUAGGGUUGGGUCCCUUGGCAGCAAAUCGCAUACU [KL-SSTheoB22] was 391

Measured apparent KD of K4 kissing-loop reporter, UUCUCUCAGGCACGCGAGUGAUGUUCGCGGCGAGGACCGGUACGGCCGCCACUCGCGCCUGAGAGAGGUUAUCAAAGAUAGCCUU [whbob_SS_tryp_A] : 92.3

Record AGUGAUGUGGGAAGGAGCGGUAUAAGAAUUCAGUGAUGUUGAAGUGUUGCUGUAAUAAAGAGCCAGGUAGGUCGCCUAGAUGUUA [KL-XARG B30] . Reported apparent KD of K4 kissing-loop reporter: 775

Lookup result for GAGAGCCCUGGAGGAUAUGAGUCUAGUGAUGUUAGGCGGUCCAUGCGCGUGGCGCGUUAUGCCCUUUUAGAAGGCCAGGGCUCUC [#2 Exclusion - FMN B Attempt #18 (HarryS)] ; measured apparent KD of K4 kissing-loop reporter: 68.5

apparent KD of K4 kissing-loop reporter reported for this sequence GAAUUAUGUAGAAGGAGCGUUAGAAGGUAUAGGUGCGAGUGAUGUUUGGAUUUGUUAAUUUGACAGGUAGGUCGCUACAGAAGGA [KL-SSArg B18 #analogue] : 259

# sequence UGAUUAAGCAGUGAUGUUGCAAGUAAUGAUACCAGUUAAGAAGAGAACCCUUGGCAGCAUAAAGUGCGCUCUGAUGAGUGUGCUU [whbob_SS_Theo_A_w53] ; its apparent KD of K4 kissing-loop reporter = 153

Entry UUCUUGAUGGAAACAUCGAGGAUCACUGAUACCAGUAUCGAUAGAUACCCUUGGCAGCAGUGUCGGUGGUCACGAGUGAUGUUCG [Ex Theophylline A K4 12] , apparent KD of K4 kissing-loop reporter reported as 731

UGAUACCAGACGGCCGCCACUGCACCAGUCAAUGACUGAGUGUAGUAAUGCUCAGUGAUGUUGAGUAGGACCGGGUCUGGUAUCU [Mod of Eli's TrypBX 8 v1] has a reported apparent KD of K4 kissing-loop reporter of 122

Form: sequence = UGAUACCAGACGGCCGCCACUCCCGUAAGUCAAAGACUUACGAAGAGAAUCGUCCAGUGAUGUUGGAGGACCGGGUCUGGUAUCU [FiskerMod 11 - Jieux - Exclusion - Tryptophan B] ; apparent KD of K4 kissing-loop reporter = 664

Entry CGCAGUGAUGUUGCGAGUAGCUACAGGGAAGGAGCGCUUUAGUAAGCAGGUAGGUCGCCCACGCAGUGAUGUUGCGUCAUAGGGU [Exclusion Arginine A GF 19] ; apparent KD of K4 kissing-loop reporter = 106

# apparent KD of K4 kissing-loop reporter of CGAUGGAUGGCAGGAUAUAGACAUUGAGUGAUGUUCGAUGAUUAUCCAUAUUCCCGUCACCUAAGACUAGAAGGGCCAUCCAUCG = 167

Measured apparent KD of K4 kissing-loop reporter, GUUGUCUACCAGAGGUGAUGUAUAGUAUCGCGAGGACCGGUACGGCCGCCACUCGUGAAGAGAAAGGAGUGAUGUUCCGUAAUGG [C10] : 271
